- targetEntity: Adenosine receptor A3 (Homo sapiens)
- Sequence (whole entry): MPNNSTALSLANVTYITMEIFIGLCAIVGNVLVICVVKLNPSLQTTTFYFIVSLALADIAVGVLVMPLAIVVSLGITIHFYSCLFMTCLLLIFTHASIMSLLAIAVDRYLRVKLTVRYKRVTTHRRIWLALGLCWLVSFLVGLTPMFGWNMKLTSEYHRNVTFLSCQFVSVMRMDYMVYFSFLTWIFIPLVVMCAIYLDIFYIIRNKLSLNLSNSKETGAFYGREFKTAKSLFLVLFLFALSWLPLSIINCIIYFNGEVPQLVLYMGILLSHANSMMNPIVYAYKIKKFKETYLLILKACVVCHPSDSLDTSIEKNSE
- protocolText: Displacement of [3H]PSB-11 from human adenosine A3 receptor expressed in CHO cells relative to control
- Assay type: cell-based
- Parameters: concentration or dose not given beside the values
- conditionContext: concentration not given here
Please go through the items and note down their inhibition.

The examples below pair each entry with its known result.
>>> experimentalresult("C#CCn1c(=O)c2c(nc3n2CCCN3c2cccc(OC)c2)n(C)c1=O")
"20%"
>>> experimentalresult("C#CCn1c(=O)c2c(nc3n2CCCN3CC2CCCO2)n(C)c1=O (stereo not drawn)")
"9%"
>>> experimentalresult("Cn1c(=O)c2c(nc3n2CCCN3Cc2ccc(Cl)cc2)n(C)c1=O")
"36%"
>>> experimentalresult("C#CCn1c(=O)c2c(nc3n2CCCN3c2cccc(Br)c2)n(C)c1=O")
"34%"
>>> experimentalresult("Cn1c(=O)c2c(nc3n2CCCN3Cc2cc(Cl)cc(Cl)c2)n(C)c1=O")
"14%"

Can you give me inhibition for all of these, one by one?
1. C#CCn1c(=O)c2c(nc3n2CCCN3c2ccc(F)cc2)n(C)c1=O
2. COc1ccc(CN2CCN(C(=O)CN3CCCn4c3nc3c4c(=O)n(C)c(=O)n3C)CC2)cc1
3. C#CCn1c(=O)c2c(nc3n2CCCN3CC2CCCCC2)n(C)c1=O
4. Cn1c(=O)c2c(nc3n2CCCN3c2cccc(Cl)c2)n(C)c1=O
5. C#CCn1c(=O)c2c(nc3n2CCCN3Cc2cccs2)n(C)c1=O

22%
15%
5%
33%
30%

Can you give me inhibition for all of these, one by one?
1. Cn1c(=O)c2c(nc3n2CCCN3CCc2cccc(Cl)c2)n(C)c1=O
2. C#CCn1c(=O)c2c(nc3n2CCCN3CCc2cccs2)n(C)c1=O
3. Cn1c(=O)c2c(nc3n2CCCN3CC(=O)N2CCN(c3ccccc3)CC2)n(C)c1=O

43%
20%
32%

---

- targetEntity: Adenosine receptor A1 (Rattus norvegicus)
- Sequence (P25099 whole entry): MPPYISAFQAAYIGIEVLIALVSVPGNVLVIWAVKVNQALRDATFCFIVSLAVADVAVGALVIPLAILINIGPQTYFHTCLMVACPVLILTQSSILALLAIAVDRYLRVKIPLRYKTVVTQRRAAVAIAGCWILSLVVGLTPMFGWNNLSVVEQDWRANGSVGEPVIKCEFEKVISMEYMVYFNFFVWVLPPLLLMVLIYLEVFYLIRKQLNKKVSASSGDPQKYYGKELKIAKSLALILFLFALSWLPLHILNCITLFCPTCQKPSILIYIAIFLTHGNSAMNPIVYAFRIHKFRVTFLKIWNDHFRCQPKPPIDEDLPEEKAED
- protocolText: Displacement of [3H]CCPA from adenosine A1 receptor in rat brain cortex
- Type: tissue-based
pKi: −log10 of the molar value.
Please go through the items and note down their pKi.

>>> experimentalresult("CCCn1c(=O)c2c(nc3n2CCCN3CC(=O)N2CCN(c3ccc(Cl)cc3)CC2)n(CCC)c1=O")
"< 5.82"

Can you give me pKi for all of these, one by one?
1. Cn1c(=O)c2c(nc3n2CCCN3c2ccc(F)cc2)n(C)c1=O
2. CCCn1c(=O)c2c(nc3n2CCCN3CC(=O)N2CCN(Cc3ccc(OC)cc3)CC2)n(CCC)c1=O

["< 4.60", "< 5.82"]

Can you give me pKi for all of these, one by one?
1. Cn1c(=O)c2c(nc3n2CCCN3c2ccc(Cl)cc2)n(C)c1=O
2. Cn1c(=O)c2c(nc3n2CCCN3CC(=O)N2CCN(c3ccc(Cl)cc3)CC2)n(C)c1=O

1. ≤ 4.60
2. < 5.82
